{"Molecule": "CC(=O)Nc1c(C(=O)c2cccc(C)c2)[nH]c2cc(Cl)ccc12", "melting point": "96 to 100 °C"}
{"Molecule": "Brc1ccc(C2CCN(C3CCC3)CC2)nc1", "melting point": "122 to 124 °C"}
{"Molecule": "COc1ccc(Nc2nc(-c3cccc(C(=O)Nc4ccc(C(=O)O)cc4)c3)cn3ccnc23)cc1OC", "melting point": "> 250 °C"}
{"Molecule": "CN1CCN(c2ccc(C#N)nn2)CC1", "melting point": "149 °C"}
{"Molecule": "CSC1CCC2C3CCC4=CC(=O)C=CC4(C)C3(F)C(O)CC12C (stereo not given)", "melting point": "235 to 236 °C"}

----------
Test Readout: melting point

{"Molecule": "CC(C)(O)c1ccc(-c2cnc3[nH]c(=O)n(CC4CCCCC4)c3n2)cc1", "Result": "226 to 228 °C"}
{"Molecule": "CCCCn1c(=O)n(CC=C(C)C)c(=O)c2c1ncn2S(=O)(=O)c1ccc(OC)c(OC)c1", "Result": "92 to 95 °C"}
{"Molecule": "C[C@@H]1CCCN1CCCOc1ccc(-c2cc(-c3ccccn3)c(=O)[nH]n2)cc1", "Result": "157 to 161 °C"}
{"Molecule": "OCCCc1oc(Sc2ccccn2)nc1-c1ccc(Cl)cc1", "Result": "70 to 71 °C"}
{"Molecule": "O=C(NC(Cc1ccccc1Cl)C(=O)N1CCSC1)c1cc2cc(Cl)ccc2[nH]1 (stereo unspecified)", "Result": "214 to 216 °C"}
{"Molecule": "O=C(Nc1ccc(C(=O)N2Cc3ccccc3Cc3ccccc32)cc1)c1ccccc1-c1ccccc1", "Result": "224 to 225 °C"}
{"Molecule": "CC(=Cc1ccc(N)cc1)c1ccc2c(c1)C(C)(C)CCC2(C)C", "Result": "106 to 108 °C"}
{"Molecule": "COc1cc(OC)cc(N2CCN(C(=O)Nc3cc4ccccc4cc3OC)CC2)c1", "Result": "191 to 193 °C"}
{"Molecule": "CNc1nc(-c2cccc(NC(=O)c3ccc(Cl)nc3)c2)c2cc(OC)c(OC)cc2n1", "Result": "157 to 159 °C"}
{"Molecule": "CN1CCN(C2=Nc3cc(Cl)c(Cl)cc3Nc3nn(C)nc32)CC1", "Result": "218 °C"}
{"Molecule": "CCC1Cc2cc(OC(C)(C)C(=O)O)c(Cl)c(Cl)c2C1=O (stereo unspecified)", "Result": "165 to 166 °C"}
{"Molecule": "CC(N)Cc1cccc(N)c1 (stereo unspecified)", "Result": "78 to 79 °C"}
{"Molecule": "CC1CC2C3CCC4=CC(=O)C=CC4(C)C3C(O)CC2(C)C1C(=O)CI (stereo unspecified)", "Result": "153 °C"}
{"Molecule": "O=C1c2ccccc2C(=O)N1C1CC=CCC1 (stereo unspecified)", "Result": "114 °C"}
{"Molecule": "COC(=O)C1(O)CC(CO)=NN1c1ncccc1Cl (stereo unspecified)", "Result": "111 to 113 °C"}
{"Molecule": "NS(=O)(=O)c1cc(C(O)CN(Cc2ccccc2)Cc2ccccc2)ccc1N1CCCCC1 (stereo unspecified)", "Result": "133 to 142 °C"}
{"Molecule": "CCN1CCCC1CNC(=O)c1cc(S(=O)(=O)CC)cc2c1OCCO2 (stereo unspecified)", "Result": "111 to 122 °C"}
{"Molecule": "CC(C#N)=CCN1C(=O)c2ccccc2S1(=O)=O", "Result": "107 to 108 °C"}
{"Molecule": "Nc1nc2ccccc2c2c1nc(-c1ccccc1)n2CCCCNC(=S)Nc1cccnc1", "Result": "118 to 120 °C"}
{"Molecule": "CCCCCCCCCCCCCN1CC(=O)C(C#N)=C1N", "Result": "214 to 215 °C"}
{"Molecule": "CSc1c(Cl)nc(Cl)nc1SC#N", "Result": "143 to 144 °C"}
{"Molecule": "Cc1c2cnc3c([N+](=O)[O-])cccc3c2nn1C", "Result": "235 to 236 °C"}
{"Molecule": "CCOC(=O)c1ccc(O)c(CC)c1", "Result": "73 to 74 °C"}
{"Molecule": "Cc1ccc(-c2nc(-c3ccc(C(=O)NCCCBr)cc3)cs2)cc1", "Result": "175 to 177 °C"}
{"Molecule": "Clc1ccc2[nH]c3c(Cl)nc4ccccc4c3c2c1", "Result": "250 °C"}
{"Molecule": "C=CCOc1cccc(C(=O)c2ccccc2C(=O)OC)c1", "Result": "50 to 52 °C"}
{"Molecule": "CCc1cc(CC)c2ccc(=O)n(CCN(C)C)c2n1", "Result": "59.5 to 61 °C"}
{"Molecule": "O=C1Nc2cccc(F)c2C(=O)N2CC[C@@H]12", "Result": "232 to 234 °C"}
{"Molecule": "COc1cc(COc2nn(-c3ccccc3)cc2/C=C2\\SC(=O)N(C)C2=O)ccc1OCc1nc(-c2ccco2)oc1C", "Result": "215 to 216 °C"}
{"Molecule": "CN(C)S(=O)(=O)c1c(S(N)(=O)=O)c(C(C)(C)C)cn1C", "Result": "98 to 101 °C"}
{"Molecule": "CCCn1cc2c(C3C(=O)Nc4ccc(S(=O)(=O)N(C)C)cc43)nc(NCCN(C)C)nc2n1 (stereo unspecified)", "Result": "259 to 263 °C"}
{"Molecule": "Clc1cccc(N2CCN(CCCc3nnn[nH]3)CC2)c1", "Result": "162 to 164 °C"}
{"Molecule": "CCCCOC(=O)CNC(=O)c1ncccc1OC", "Result": "60 to 62 °C"}
{"Molecule": "O=C(N[C@H](Cc1ccc(C(F)(F)F)cc1)[C@@H](O)c1cccc2ccccc12)c1ccc(C(F)(F)F)cc1 (racemic)", "Result": "232 to 233 °C"}
{"Molecule": "O=C(NCc1ccccc1)C1C=Nc2ccccc2S1 (stereo unspecified)", "Result": "160 to 162 °C"}
{"Molecule": "COc1cccc2cc(C(=O)Oc3ccc(Cl)cn3)c(=O)oc12", "Result": "203 to 204 °C"}
{"Molecule": "Clc1cc2nc(Cl)n(Cc3ccccc3)c2cc1Cl", "Result": "175 to 176 °C"}
{"Molecule": "ClCCCn1ncc2cc(OCc3ccccc3)ccc21", "Result": "65 to 66 °C"}
{"Molecule": "CCCCC(CC)COc1ccc2c(c1)C(=O)c1ccc(OCC(CC)CCCC)cc1C2=O (stereo unspecified)", "Result": "49 to 51 °C"}
{"Molecule": "CCOC(=O)C1=C[C@@H](O)[C@H](NC(C)=O)[C@@H](NC(=O)OC(C)(C)C)C1", "Result": "177 to 178 °C"}
{"Molecule": "Cc1noc(C)c1C(=O)Nc1ccc(-n2nccc2C)cc1", "Result": "151 to 152 °C"}
